IC50 values, listed per item
- Tested on: Gli-responsive luciferase reporter cells, SUFU pathway antagonism
- procedure-summary: Gli-SUFU pathway antagonists, dose response, cell-based, luciferase luminescence, uHTS hits (AID 602464)
measure: IC50

[
  {
    "compound": "CC(=O)N1c2ccc(S(=O)(=O)N3CCC(C(=O)N4CCCCC4)CC3)cc2CC1C (stereo unspecified)",
    "reading": "16.9 µM"
  },
  {
    "compound": "NC(=O)c1c(-c2ccc(Cl)cc2Cl)csc1NC(=O)Cc1ccccc1",
    "reading": "7.97 µM"
  },
  {
    "compound": "CCCCCCCOc1ccc(OC(=O)c2ccncc2)cc1",
    "reading": "0.954 µM"
  },
  {
    "compound": "CN(Cc1nccs1)C(=O)c1cc(COc2cccc3cnccc23)on1",
    "reading": "12 µM"
  },
  {
    "compound": "COc1ccc(CNCC(O)COc2cccc3c2OC(C)(C)C3)cc1 (stereo unspecified)",
    "reading": "5.99 µM"
  },
  {
    "compound": "CCC(CC)CN1C(N(C)C)=NC[C@@H]1CC(C)C",
    "reading": "8.27 µM"
  }
]

====

- Tested on: Gli-responsive luciferase reporter cells, SUFU pathway antagonism
- procedure-summary: Gli-SUFU pathway antagonists, dose response, cell-based, luciferase luminescence, uHTS hits (AID 602464)
The source made the active and inactive calls. Rule as the data show it: active = IC50 below about 20 µM; inactive = the rest.
Outcome codes: True = active, False = inactive

[
  {
    "compound": "Brc1ccc(-c2c[n+]3c(n2-c2ccccc2)SCC3)cc1",
    "target-entity": "Gli-responsive luciferase reporter cells, SUFU pathway antagonism",
    "group": "True"
  },
  {
    "compound": "O=C(Cc1csc(Nc2nc(=S)[nH]c3ccccc23)n1)NCCCN1CCN(c2ccccc2F)CC1",
    "target-entity": "Gli-responsive luciferase reporter cells, SUFU pathway antagonism",
    "group": "False"
  },
  {
    "compound": "O=C(NCCNc1ccnc2cc(Cl)ccc12)c1ccccc1F",
    "target-entity": "Gli-responsive luciferase reporter cells, SUFU pathway antagonism",
    "group": "True"
  },
  {
    "compound": "Cc1cccc(CCN2C(N(C)C)=NC[C@@H]2CC(C)C)c1",
    "target-entity": "Gli-responsive luciferase reporter cells, SUFU pathway antagonism",
    "group": "True"
  },
  {
    "compound": "COc1ccc(CC(=O)Nc2cccc(S(=O)(=O)N3CCCCCC3)c2)cc1OC",
    "target-entity": "Gli-responsive luciferase reporter cells, SUFU pathway antagonism",
    "group": "True"
  },
  {
    "compound": "CCCN1CCC(=O)N([C@H](CSc2ccc(OC)cc2)Cc2ccccc2)CC1",
    "target-entity": "Gli-responsive luciferase reporter cells, SUFU pathway antagonism",
    "group": "True"
  },
  {
    "compound": "CCN1CCCC1CNc1ncnc2c1[nH]c1ccc(Cl)cc12 (configuration not stated)",
    "target-entity": "Gli-responsive luciferase reporter cells, SUFU pathway antagonism",
    "group": "False"
  },
  {
    "compound": "O=C(Cc1ccc(Cl)cc1Cl)Nc1ccncc1",
    "target-entity": "Gli-responsive luciferase reporter cells, SUFU pathway antagonism",
    "group": "True"
  },
  {
    "compound": "C(#Cc1ccccc1)C[N+]1(CC#Cc2cccc3ccccc23)CCCC1",
    "target-entity": "Gli-responsive luciferase reporter cells, SUFU pathway antagonism",
    "group": "True"
  },
  {
    "compound": "CCOC(=O)N1CCN(C(=O)c2cc(COc3ccc4ncccc4c3)on2)CC1",
    "target-entity": "Gli-responsive luciferase reporter cells, SUFU pathway antagonism",
    "group": "True"
  },
  {
    "compound": "O=C(c1cnc(N2CCN(c3ccccn3)CC2)c2ccccc12)N1CCN(c2cccc(Cl)c2)CC1",
    "target-entity": "Gli-responsive luciferase reporter cells, SUFU pathway antagonism",
    "group": "True"
  },
  {
    "compound": "Cc1nn(C)c(C)c1/C=C/C(=O)c1ccc(Cl)cc1Cl",
    "target-entity": "Gli-responsive luciferase reporter cells, SUFU pathway antagonism",
    "group": "True"
  },
  {
    "compound": "Cc1nn(Cc2noc(C(=O)NC3CCC(C)CC3)n2)c(C)c1Br (configuration not stated)",
    "target-entity": "Gli-responsive luciferase reporter cells, SUFU pathway antagonism",
    "group": "True"
  },
  {
    "compound": "CC1CCC(NC(=O)c2cccc(S(=O)(=O)N3CCN(c4ccccc4)CC3)c2)CC1 (configuration not stated)",
    "target-entity": "Gli-responsive luciferase reporter cells, SUFU pathway antagonism",
    "group": "True"
  },
  {
    "compound": "COC(=O)c1cc(S(=O)(=O)N2CCC(c3cc(OC)ccc3OC)C2)c[nH]1 (configuration not stated)",
    "target-entity": "Gli-responsive luciferase reporter cells, SUFU pathway antagonism",
    "group": "True"
  },
  {
    "compound": "CC(=O)c1ccc(N2CCN(c3ccc(C(F)(F)F)cn3)CC2)cc1",
    "target-entity": "Gli-responsive luciferase reporter cells, SUFU pathway antagonism",
    "group": "True"
  },
  {
    "compound": "C[N+]1=C(/C=C/Nc2ccccc2)C(C)(C)c2ccccc21",
    "target-entity": "Gli-responsive luciferase reporter cells, SUFU pathway antagonism",
    "group": "True"
  },
  {
    "compound": "COc1cccc(/C=C/c2ccncc2)c1OC",
    "target-entity": "Gli-responsive luciferase reporter cells, SUFU pathway antagonism",
    "group": "True"
  },
  {
    "compound": "COCCNc1nc2c(c(=O)n(C)c(=O)n2C)n1Cc1cccc(C)c1",
    "target-entity": "Gli-responsive luciferase reporter cells, SUFU pathway antagonism",
    "group": "True"
  },
  {
    "compound": "COc1cccc(CN(C)C(=O)c2cc(COc3ccc4ncccc4c3)on2)c1",
    "target-entity": "Gli-responsive luciferase reporter cells, SUFU pathway antagonism",
    "group": "True"
  },
  {
    "compound": "NC(=O)CC(NC(=O)c1ccccc1)c1ccc(N2CCCCCC2)c([N+](=O)[O-])c1 (configuration not stated)",
    "target-entity": "Gli-responsive luciferase reporter cells, SUFU pathway antagonism",
    "group": "False"
  },
  {
    "compound": "Cc1c(C(C)C)c(=O)n(-c2ccc(S(=O)(=O)NC3CCCCC3)cc2)n1C",
    "target-entity": "Gli-responsive luciferase reporter cells, SUFU pathway antagonism",
    "group": "True"
  }
]

====

- System: Gli-responsive luciferase reporter cells, SUFU pathway antagonism
- procedure-summary: Gli-SUFU pathway antagonists, dose response, cell-based, luciferase luminescence, uHTS hits (AID 602464)
The source made the active and inactive calls. Cut-off read from the data, not from the text of the source: active = IC50 below about 20 µM; inactive = the rest.
Outcome codes: Y = active, N = inactive

[
  {
    "molecule": "O=C(N[C@H]1C/C=C\\C[C@@H](CC(=O)N(CCO)Cc2ccccc2)C(=O)NC[C@H](c2ccccc2)OC1=O)OCC1c2ccccc2-c2ccccc21",
    "group": "Y"
  },
  {
    "molecule": "C#CC[N+](C)(C)CCCCCCCCCCCC",
    "group": "Y"
  },
  {
    "molecule": "COc1cc(C(=O)NC2CCN(C)CC2)ccc1Nc1ncc2c(n1)N(Cc1ccccc1)CCC(=O)N2C",
    "group": "Y"
  },
  {
    "molecule": "Cc1cc(Br)c(S(=O)(=O)NCc2ccncc2)cc1C",
    "group": "Y"
  },
  {
    "molecule": "CNc1nc(NCc2ccccc2)c2ccccc2n1",
    "group": "Y"
  },
  {
    "molecule": "c1ccc(Cn2c(-c3ccccc3)c[n+]3c2SCCC3)cc1",
    "group": "Y"
  },
  {
    "molecule": "O=C(C[C@@H]1C/C=C\\C[C@H](NC(=O)OCC2c3ccccc3-c3ccccc32)C(=O)OC[C@H]2CCCN2C1=O)N[C@H](CO)Cc1ccccc1",
    "group": "Y"
  },
  {
    "molecule": "CC(C)CCOC(=O)C[N+](C)(C)CCOC1CC2CCC1(C)C2(C)C (stereo not given)",
    "group": "Y"
  },
  {
    "molecule": "CC1=CC(C)C2(COC(c3ccc[n+](C)c3)OC2)C(C)C1 (stereo not given)",
    "group": "Y"
  },
  {
    "molecule": "Cc1cc(/C=N/n2cnnc2)c(C)n1-c1ccc(OCc2ccccc2F)cc1",
    "group": "Y"
  },
  {
    "molecule": "CCN(CC(=O)Nc1c(F)cccc1F)C(=O)c1cc(S(=O)(=O)N(CC)CC)ccc1N1CCCCC1",
    "group": "Y"
  },
  {
    "molecule": "Clc1ccc(-n2cc(-c3ccc(Br)cc3)[n+]3c2CCCCC3)cc1",
    "group": "Y"
  },
  {
    "molecule": "COc1ccccc1NS(=O)(=O)c1cccc(C(=O)NC2CCN(Cc3ccccc3)CC2)c1",
    "group": "N"
  },
  {
    "molecule": "CC(C)(C)[C@H]1COC(=O)[C@H](NC(=O)OCC2c3ccccc3-c3ccccc32)C/C=C\\C[C@@H](CC(=O)N(CCO)Cc2ccccc2)C(=O)N1",
    "group": "Y"
  },
  {
    "molecule": "Cc1csc2ncnc(NCCc3ccccn3)c12",
    "group": "Y"
  },
  {
    "molecule": "FC(F)Oc1ccc(-n2cc(-c3ccccc3)[n+]3c2CCCCC3)cc1",
    "group": "Y"
  },
  {
    "molecule": "CCn1c(C)nc2cc(-c3nnc(-c4c(-c5ccccc5)noc4C)o3)ccc21",
    "group": "Y"
  },
  {
    "molecule": "COc1ccc(C(=O)C[n+]2cc(-c3ccc(OC)cc3)n3c2CCCC3)cc1",
    "group": "Y"
  },
  {
    "molecule": "CCOC(=O)c1c(NC(=O)COc2ncnc3ccccc23)sc(C(C)=O)c1C",
    "group": "Y"
  },
  {
    "molecule": "CC(=O)Nc1ccc(S(=O)(=O)N(Cc2ccccc2)C(C)C)cc1",
    "group": "Y"
  }
]
